# System: HCV genotype 1a (H77 strain) replicon in HUH-7 cells
# test.description: HCV replicon luciferase reporter assay, genotype 1a
# Type: cell-based
# cond: Hepatitis C virus, Huh-7, 72 h, HCV genotype 1a replicon luciferase, 3 days incubation, read-out: LE_1a (EC50)
assay.readout: EC50 (µM)
I only need the number, in µM, no unit after it.

>>> assay_value("CC[C@@H]1C[C@@H](C)CC/C=C\\[C@@H]2C[C@@]2(C(=O)NS(=O)(=O)C2(C)CC2)NC(=O)[C@@H]2C[C@@H](Oc3nnc(OC)c4ccccc34)CN2C(=O)[C@H]1NC(=O)NC(C)(C)C")
0.016
>>> assay_value("CC[C@@H]1C[C@@H](C)CC/C=C\\[C@@H]2C[C@@]2(C(=O)NS(=O)(=O)C2(C)CC2)NC(=O)[C@@H]2C[C@@H](Oc3nccc4c5c(ccc34)OCCO5)CN2C(=O)[C@H]1NC(=O)OC(C)(C)C(C)(F)F")
0.0128
>>> assay_value("CCOc1nnc(O[C@@H]2C[C@H]3C(=O)N[C@]4(C(=O)NS(=O)(=O)C5(C)CC5)C[C@H]4/C=C\\CC[C@H](C)C[C@@H](C)[C@H](NC(=O)OC(C)(C)C)C(=O)N3C2)c2ccccc12")
0.00628
>>> assay_value("CCCOc1cnc(O[C@@H]2C[C@H]3C(=O)N[C@]4(C(=O)NS(=O)(=O)C5(C)CC5)C[C@H]4/C=C\\CC[C@H](C)C[C@@H](C)[C@H](NC(=O)OC(C)(C)C)C(=O)N3C2)c2ccccc12")
0.0289
>>> assay_value("CCC(CC)(OC(=O)N[C@@H]1C(=O)N2C[C@H](Oc3nccc4c5c(ccc34)OCCO5)C[C@H]2C(=O)N[C@]2(C(=O)NS(=O)(=O)C3CC3)C[C@H]2/C=C\\CC[C@H](C)C[C@H]1C)C(F)(F)F")
0.0143
>>> assay_value("CC[C@@H]1C[C@H](C)CC/C=C\\[C@@H]2C[C@@]2(C(=O)NS(=O)(=O)C2CC2)NC(=O)[C@@H]2C[C@@H](Oc3nc4cc(OC)c(F)cc4nc3O)CN2C(=O)[C@H]1NC(=O)OC(C)(C)C")
0.616

Let us examine a further case.
Problem: What value of EC50 has been reported for the following compound? [2H]C([2H])([2H])C(OC(=O)N[C@@H]1C(=O)N2C[C@H](Oc3nnc(OC)c4ccccc34)C[C@H]2C(=O)N[C@]2(C(=O)NS(=O)(=O)C3(C)CC3)C[C@H]2/C=C\CC[C@H](C)C[C@H]1CC)(C([2H])([2H])[2H])C(F)(F)F
Solution: 0.00727

###

Reported values of EC50 for individual entries
# Tested on: HCV genotype 1b (Con1) replicon in HUH-7 cells
# test.description: HCV replicon luciferase reporter assay, genotype 1b
# Assay type: cell-based
# cond: Hepatitis C virus, Huh-7, 72 h, HCV genotype 1b replicon luciferase, 3 days incubation, read-out: LE_1b (EC50, range)

Problem: Quick one: EC50 for CC(C)Oc1ccc2c(O[C@@H]3C[C@H]4C(=O)N[C@]5(C(=O)NS(=O)(=O)C6CC6)C[C@H]5/C=C\CC[C@H](C)C[C@@H](C)[C@H](NC(=O)OC(C)(C)C(F)(F)F)C(=O)N4C3)nccc2c1 ?
Solution: 4.82 to 103 nM

###

# Tested on: HCV genotype 1b (Con1) replicon in HUH-7 cells
# test.description: HCV replicon luciferase reporter assay, genotype 1b
# Format: cell-based
# cond: Hepatitis C virus, Huh-7, 72 h, HCV genotype 1b replicon luciferase, 3 days incubation, read-out: LE_1b (EC50, range)
# Lookup of reported EC50 keyed by entry

Please review the following examples before continuing.
>>> assay_value("[2H]C([2H])([2H])C(C)(OC(=O)N[C@@H]1C(=O)N2C[C@H](Oc3nnc(OC)c4ccccc34)C[C@H]2C(=O)N[C@]2(C(=O)NS(=O)(=O)C3(C)CC3)C[C@H]2/C=C\\CC[C@@H](C)C[C@H]1CC)C([2H])([2H])[2H]")
"< 5.46 nM"
>>> assay_value("C[C@@H]1CC/C=C\\[C@@H]2C[C@@]2(C(=O)NS(=O)(=O)C2(C)CC2)NC(=O)[C@@H]2C[C@@H](Oc3nc4c(c5ccccc35)CCCO4)CN2C(=O)[C@@H](NC(=O)OC(C)(C)C(C)(F)F)[C@H](C)C1")
"0.1 to 0.5 nM"
>>> assay_value("CC[C@@H]1C[C@H](C)CC/C=C\\[C@@H]2C[C@@]2(C(=O)NS(=O)(=O)C2(C)CC2)NC(=O)[C@@H]2C[C@@H](Oc3ncc(OC)c4cc(N(C)C)ccc34)CN2C(=O)[C@H]1NC(=O)OC(C)(C)C(F)(F)F")
"0.51 to 1 nM"
>>> assay_value("COc1ccc2c(Cl)ncc(O[C@@H]3C[C@H]4C(=O)N[C@]5(C(=O)NS(=O)(=O)C6(CF)CC6)C[C@H]5/C=C\\CC[C@@H](C)C[C@@H](C)[C@H](NC(=O)OC(C)(C)C)C(=O)N4C3)c2c1")
"1.01 to 5 nM"
>>> assay_value("COc1nnc(O[C@@H]2C[C@H]3C(=O)N[C@]4(C(=O)NS(=O)(=O)C5(C)CC5)C[C@H]4/C=C\\CC[C@@H](C)C[C@@H](C)[C@H](NC(=O)NC(C)(C)C)C(=O)N3C2)c2ccccc12")
"< 5.46 nM"
>>> assay_value("COc1ccc2c(O[C@@H]3C[C@H]4C(=O)N[C@]5(C(=O)NS(=O)(=O)C6CC6)C[C@H]5/C=C\\CC[C@H](C)C[C@@H](C)[C@H](NC(=O)OC5C[C@@H]6C[C@@H]6C5)C(=O)N4C3)nc(-c3ccc(N4CCOCC4)cc3)cc2c1 (some centres unmarked)")
"< 5.46 nM"
>>> assay_value("CCOc1cnc(O[C@@H]2C[C@H]3C(=O)N[C@]4(C(=O)NS(=O)(=O)C5(C)CC5)C[C@H]4/C=C\\CC[C@@H](C)C[C@@H](CC)[C@H](NC(=O)OC(C)(C)C)C(=O)N3C2)c2ccccc12")
"< 5.46 nM"
>>> assay_value("CC[C@@H]1C[C@@H](C)CC/C=C\\[C@@H]2C[C@@]2(C(=O)NS(=O)(=O)C2CC2)NC(=O)[C@@H]2C[C@@H](Oc3nccc4c5c(ccc34)N(C)CCO5)CN2C(=O)[C@H]1NC(=O)C(=O)N(C)C")
"4.82 to 103 nM"

Problem: Report EC50 for CC[C@@H]1C[C@H](C)CC/C=C\[C@@H]2C[C@@]2(C(=O)NS(=O)(=O)C2(C)CC2)NC(=O)[C@@H]2C[C@@H](Oc3ncc(OC)c4ccc(F)cc34)CN2C(=O)[C@H]1NC(=O)C(C)(C)C(F)(F)F please.
Solution: 0.51 to 1 nM

Problem: Same question, COc1ccc2c(O[C@@H]3C[C@H]4C(=O)N[C@]5(C(=O)NS(=O)(=O)C6CC6)C[C@H]5/C=C\CC[C@H](C)C[C@@H](C)[C@H](NC(=O)OC(C)(C)C)C(=O)N4C3)nccc2c1 this time
Solution: 1.01 to 5 nM

Problem: Entry COc1ccc2c(O[C@@H]3C[C@H]4C(=O)N[C@]5(C(=O)NS(=O)(=O)C6(CF)CC6)C[C@H]5/C=C\CC[C@@H](C)C[C@@H](C)[C@H](NC(=O)OC(C)(C)C)C(=O)N4C3)ncc(F)c2c1 please
Solution: 0.51 to 1 nM

Problem: Try COc1cc2ccnc(O[C@@H]3C[C@H]4C(=O)N[C@]5(C(=O)NS(=O)(=O)C6(CF)CC6)C[C@H]5/C=C\CC[C@@H](C)C[C@@H](C)[C@H](NC(=O)OC(C)(C)C)C(=O)N4C3)c2cc1OC next.
Solution: 1.01 to 5 nM

###

# Tested on: HCV genotype 1b (Con1) replicon in HUH-7 cells
# test.description: HCV replicon luciferase reporter assay, genotype 1b
# Assay type: cell-based
# cond: Hepatitis C virus, Huh-7, 72 h, HCV genotype 1b replicon luciferase, 3 days incubation, read-out: LE_1b (EC50, range)
assay.readout: EC50

These solved cases illustrate the format of a correct answer.
>>> assay_value("[2H]C([2H])([2H])C(OC(=O)N[C@@H]1C(=O)N2C[C@H](Oc3ncc(OC)c4ccc(F)cc34)C[C@H]2C(=O)N[C@]2(C(=O)NS(=O)(=O)C3CC3)C[C@H]2/C=C\\CC[C@@H](C)C[C@H]1CC)(C([2H])([2H])[2H])C(F)(F)F")
"0.1 to 0.5 nM"
>>> assay_value("COc1cc2c(OC)cnc(O[C@@H]3C[C@H]4C(=O)N[C@]5(C(=O)NS(=O)(=O)C6(CO)CC6)C[C@H]5/C=C\\CC[C@H](C)C[C@@H](C)[C@H](NC(=O)OC(C)(C)C)C(=O)N4C3)c2cc1F")
"4.82 to 103 nM"
>>> assay_value("CC[C@@H]1C[C@H](C)CC/C=C\\[C@@H]2C[C@@]2(C(=O)NS(=O)(=O)C2(C)CC2)NC(=O)[C@@H]2C[C@@H](Oc3nccc4cc(OC)c(F)cc34)CN2C(=O)[C@H]1NC(=O)OC(C)(C)C")
"< 5.46 nM"

Now turn to the next compound.
Problem: Given the compound CCCOc1cnc(O[C@@H]2C[C@H]3C(=O)N[C@]4(C(=O)NS(=O)(=O)C5(C)CC5)C[C@H]4/C=C\CC[C@@H](C)C[C@@H](C)[C@H](NC(=O)NC(C)(C)C(F)(F)F)C(=O)N3C2)c2ccccc12 , what is its reported EC50?
Solution: < 5.46 nM
